- System Under Test: Hepatocyte growth factor receptor (Homo sapiens) (UniProt P08581);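 also: each value is an averaged inhibition figure for MET, taken as the mean across measurements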
- Sequence (P08581 whole entry): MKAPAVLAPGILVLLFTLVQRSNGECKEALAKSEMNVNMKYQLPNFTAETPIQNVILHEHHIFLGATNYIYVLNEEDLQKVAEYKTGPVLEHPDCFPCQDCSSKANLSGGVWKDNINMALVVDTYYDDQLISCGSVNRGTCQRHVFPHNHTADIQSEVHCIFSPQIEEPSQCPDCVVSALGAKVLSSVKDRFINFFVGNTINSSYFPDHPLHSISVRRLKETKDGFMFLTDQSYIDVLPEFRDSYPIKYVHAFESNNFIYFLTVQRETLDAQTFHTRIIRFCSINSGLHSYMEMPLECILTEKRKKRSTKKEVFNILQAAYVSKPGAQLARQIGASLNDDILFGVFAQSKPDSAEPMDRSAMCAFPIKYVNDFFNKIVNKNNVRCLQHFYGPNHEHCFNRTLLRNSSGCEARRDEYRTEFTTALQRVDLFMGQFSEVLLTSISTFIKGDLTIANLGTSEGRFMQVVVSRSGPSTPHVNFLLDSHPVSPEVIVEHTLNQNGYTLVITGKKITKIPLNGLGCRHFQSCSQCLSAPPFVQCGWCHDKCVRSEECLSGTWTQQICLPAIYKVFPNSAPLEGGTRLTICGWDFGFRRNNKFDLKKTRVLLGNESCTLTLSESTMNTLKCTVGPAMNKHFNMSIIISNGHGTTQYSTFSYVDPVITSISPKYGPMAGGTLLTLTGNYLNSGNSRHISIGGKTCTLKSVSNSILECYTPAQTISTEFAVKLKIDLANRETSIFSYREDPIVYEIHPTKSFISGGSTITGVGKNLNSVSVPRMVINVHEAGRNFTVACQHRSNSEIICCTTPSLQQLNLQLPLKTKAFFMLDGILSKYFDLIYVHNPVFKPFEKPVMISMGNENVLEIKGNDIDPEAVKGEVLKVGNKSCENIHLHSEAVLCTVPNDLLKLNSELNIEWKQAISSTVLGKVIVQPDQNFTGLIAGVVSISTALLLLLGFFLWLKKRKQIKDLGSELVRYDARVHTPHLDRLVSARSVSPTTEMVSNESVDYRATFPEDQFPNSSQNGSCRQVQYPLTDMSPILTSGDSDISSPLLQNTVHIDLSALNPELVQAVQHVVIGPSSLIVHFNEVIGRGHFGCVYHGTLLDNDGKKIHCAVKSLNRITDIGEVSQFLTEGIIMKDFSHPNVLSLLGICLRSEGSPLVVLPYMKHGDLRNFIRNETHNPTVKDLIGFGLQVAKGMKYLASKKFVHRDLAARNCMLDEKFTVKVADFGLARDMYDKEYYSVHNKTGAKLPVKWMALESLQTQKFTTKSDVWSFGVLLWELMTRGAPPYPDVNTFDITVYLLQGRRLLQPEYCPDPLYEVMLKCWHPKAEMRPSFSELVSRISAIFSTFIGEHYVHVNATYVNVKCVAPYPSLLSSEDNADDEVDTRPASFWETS
- Condition: at 1 µM
Property: inhibition (%)
Please give a number only; it is taken to be in %.

Fc1ccc(-c2nc3n(c2-c2ccncc2)CCS3)cc1: 5.29
Cc1ccc(C(=O)NC(C)C)cc1-c1ccc(C(=O)NCC2CC2)cc1: -5.28
CCS(=O)(=O)c1ccc(OC)c(Nc2ncc(-c3cccc(-c4ccccc4F)c3)o2)c1: 3.52
NS(=O)(=O)c1ccc(N/N=C2\C(=O)Nc3ccc(C(=O)NCCCn4ccnc4)cc32)cc1: 12

Please turn your attention to the following entry.
Fill in the blank: the reported inhibition of CCS(=O)(=O)c1ccc(OC)c(Nc2ncc(-c3ccccc3Cl)o2)c1 is ____.
3.68

Data provenance is ChEMBL document CHEMBL1961873.
